Assay: NCI Yeast Anticancer Drug Screen. Data for the mec2-1 strain (AID 157)
Conditions: S. cerevisiae mec2-1 strain, at 50.0 µM, stronger effect = higher value
About 79,000 compounds went through this panel and 15% of them were active in at least one assay; those are over-represented in the sample as a whole.
Reported values of growth inhibition for individual entries
Only the number, expressed in %, is required.

N[n+]1ccccc1 | -6.85
O=c1cccc(O)[nH]1 | -17.6
Cc1ncc([N+](=O)[O-])n1CCNC(=O)CCCCn1ccnc1[N+](=O)[O-] | -3.75
Nc1cnc(N)nc1 | -18.8

In: Give its growth inhibition value. Item: CC1SCCNC1=O (stereo unspecified)
Out: -1.5

In: Give its growth inhibition value. Item: "Cc1cc(-c2cc(C)on2)no1"
Out: -2.75

---

Test: NCI Yeast Anticancer Drug Screen. Data for the cln2 rad14 strain (AID 165);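 also: 0% = growth equal to vehicle treated cultures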
Details: S. cerevisiae cln2 rad14 strain, at 50.0 µM, stronger effect = higher value
This is part of a sample that, as a whole, favours compounds with a hit. Of some 79,000 tested, about 15% had one in any assay.
Lab note: compare growth inhibition against 20%. Equal or greater, write true. Smaller, write false.

Take a look at these entries with their results.
CCCCc1ccc(Nc2nc(SC)c3[nH]cnc3n2)cc1 | false
O=C(c1ccccc1)c1ccccc1C(=O)c1ccccc1 | false
COC1/C=C/OC2(C)Oc3c(C)c(OC(C)=O)c4c(c3C2=O)C(=O)C=C(NC(=O)/C(C)=C\C=C\C(C)C(OC(C)=O)C(C)C(O)C(C)C(OC(C)=O)C1C)C4=O (stereo not given) | true

In: Kindly determine if growth inhibition recorded for C=C1C(=O)OC2(CCCCC)CCCCC12 (stereo not given) is above or exactly 20%.
Out: false

---

Assay: NCI Yeast Anticancer Drug Screen. Data for the bub3 strain (AID 167)
Settings: S. cerevisiae bub3 mutant strain, at 50.0 µM, stronger effect = higher value
About 79,000 compounds went through this panel and 15% of them were active in at least one assay; those are over-represented in the sample as a whole.
property-label: growth inhibition (%)
Value expressed in %; do not type the unit.

CC(C)=NOC(CCOC(=O)c1ccccc1)COC(=O)c1ccccc1 (centres undefined) | -11.8
O=C1OC(c2ccc([N+](=O)[O-])cc2)=N/C1=C\c1ccccc1 | 6.25
O=C(c1ccccc1)n1c2ccccc2c2ccccc21 | 26.2

In: Item "COc1ccc(OC)c(/C=C/c2ccccc2)c1" has what recorded growth inhibition?
Out: 1.6

In: Fill in: growth inhibition of "C1=C2CCc3ccc(o3)CCC(=C1)O2" is ___
Out: -0.05

In: Please look up its growth inhibition: "O=c1cc2n(c(=O)n1Cc1ccccc1)CCC2"
Out: -3.9

In: Data request, read-out growth inhibition, for "O=C1NC(=O)C(c2ccc(Br)c3ccccc23)=C1O"
Out: -5.25

In: Look up growth inhibition for this molecule: Cc1cccc(C2CCCCC2OS(C)(=O)=O)c1 (centres undefined)
Out: 11.8

In: Would you kindly share the measured growth inhibition for "O=C(O)c1cccnc1-c1ccccc1" ?
Out: -12.9

In: So what does the record say about growth inhibition for "c1ccc(-c2ccc3c4ccccc4ccn23)cc1" ?
Out: 12.7

In: Dear colleague, I am looking for the recorded growth inhibition of the following molecule: "O=C(NC12CC3CC(CC(C3)C1)C2)C(=O)c1c[nH]c2ccc(Br)cc12"
Out: -2.95

---

Assay: NCI Yeast Anticancer Drug Screen. Data for the mec2-1 strain (AID 157)
Conditions: S. cerevisiae mec2-1 strain, at 50.0 µM
The panel holds about 79,000 compounds, 15% with a hit somewhere; the sample as a whole holds those more often. Active and inactive are the calls of the source. Rule as the data show it: active = growth inhibition above about 70%; inactive = the rest.
Respond with a class label; see 1 for active, 0 for inactive

See these solved cases before continuing.
O=C(O)c1cc(Br)sc1Br | 0
CN(C)CCSSCCN(C)C | 0
CCCCCC(/C=C/[C@@H]1[C@H]2CC(=O)O[C@H]2C[C@H]1N1CCOCC1)OC1CCCO1 (stereo partly specified) | 0

In: Record request — test call for "COC(=O)c1ccccc1/C=C1\Cc2cc3c(cc2C1=O)CCC3"
Out: 0

In: What is the recorded call for this molecule in the test? CC(C)C1CC[C@H](C)C[C@@H]1OC(=O)C(C(=O)O[C@H]1C[C@@H](C)CCC1C(C)C)C(O)[C@@H]1OC(C)(C)O[C@H]1C1COC(C)(C)O1 (stereo partly specified)
Out: 1

In: Tell me the recorded outcome of this test for "CNc1nnnn1-c1ccccc1C" .
Out: 0

In: I'd appreciate the recorded outcome for NC(=S)NNC(=O)C(Cc1ccccc1)NC(=O)OCc1ccccc1 (stereo unspecified) from this test.
Out: 0

In: Please state the recorded outcome for this molecule: "N#C/C(N)=C(\C#N)N=CN"
Out: 0

In: Assay outcome for O=C1CCC(C(=O)Nc2ccc(Cl)c(Cl)c2)N1 (stereo unspecified) : what was it?
Out: 0

In: Hello, I am checking results. What call was entered for "S=C(Sc1nc2ccccc2[nH]1)Sc1nc2ccccc2[nH]1" ?
Out: 0

In: What was the test verdict on "COCCCNC(=S)N/N=C/c1ccccc1O" ?
Out: 0

In: Please let me know the test result on file for "COc1cc(C(C)(C)C)c2oc3c(c2c1)C(=O)C(C(C)(C)C)=CC3(OC)OC" .
Out: 0

---

Assay: NCI Yeast Anticancer Drug Screen. Data for the mec2-1 strain (AID 157)
Conditions: S. cerevisiae mec2-1 strain, at 50.0 µM, stronger effect = higher value
This is part of a sample that, as a whole, favours compounds with a hit. Of some 79,000 tested, about 15% had one in any assay.
Overview of recorded growth inhibition for various molecules
Give the number; % is assumed, so skip it.

In: What value of growth inhibition has been reported for the following molecule? "O=C(COCC(=O)N/N=C/c1c(O)ccc2ccccc12)N/N=C/c1c(O)ccc2ccccc12"
Out: -13

In: Look at this molecule and give its reported growth inhibition. N#CC(c1ccccc1)N(CCCCCCN(C(=O)c1ccccc1)C(C#N)c1ccccc1)C(=O)c1ccccc1 (configuration not stated)
Out: 37

In: So what does the record say about growth inhibition for "Cc1ccc2c(c1)P(=O)(O)c1cc(C)ccc1O2" ?
Out: -13.2

In: GET /values?readout=growth inhibition&item= "O=C(OCCCCCCCCOC(=O)c1cccc([N+](=O)[O-])c1)c1cccc([N+](=O)[O-])c1"
Out: 11.8

In: Returns the measured growth inhibition for the input molecule. Input: "CC(C)CCN(CCCNc1c2c(nc3ccc(Cl)cc13)CCCC2)CCC(C)C"
Out: -9.4

In: Name the reported growth inhibition value associated with the molecule "O=C(CC(=O)N(C(=O)c1ccccc1)c1ccc(Cl)cc1)N/N=C\c1ccccc1O"
Out: -5.4

In: Request the reported growth inhibition associated with O=C1OC2(OC2c2ccccc2)c2ccccc21 (configuration not stated)
Out: -8.95

In: I am curious: what growth inhibition value has been reported for O=C(OCC1OC(C2N(c3ccccc3)CCN2c2ccccc2)C(OC(=O)c2ccccc2)C1OC(=O)c1ccccc1)c1ccccc1 (configuration not stated) ?
Out: 6.5

In: # input molecule: "O=C(O)c1ccc(C(=O)O)c(C(=O)Nc2ccc3c(c2)C(=O)c2ccccc2-3)c1" ; wanted: its growth inhibition
Out: -26.6

In: growth inhibition lookup needed for CSCCC(NC(c1ccccc1)c1ccccc1)[P+](=O)O (configuration not stated) , thanks.
Out: -44.8

In: Find the recorded growth inhibition belonging to "CN(CC(=O)c1ccc(Cl)cc1)Cc1ccccc1" and report it.
Out: -8.8

In: Requested field: growth inhibition. Item: "COC(=O)/C=C1/CC[C@H]2[C@@H]3CCC4=CC(=O)CC[C@]4(C)[C@H]3C(=O)C[C@]12C"
Out: 6.35

In: I am curious: what growth inhibition value has been reported for "CC(C)(C)OC(=O)NCS(=O)(=O)N(Cc1ccccc1)Cc1ccccc1" ?
Out: 89

In: Would you kindly share the measured growth inhibition for CCN(CC)CCC1(C#N)Cc2ccccc2N(CC)c2ccccc21 (configuration not stated) ?
Out: 5.05

In: Can you look up the measured growth inhibition of "COc1ccc2oc(=N)c(C(N)=S)cc2c1" for me?
Out: 24.2

In: Consider the molecule "COc1c2c(cc3c(CCc4ccccc4)cc(=O)oc13)CCC(C)(C)O2" and give its measured growth inhibition.
Out: -22.8

In: For the molecule shown here, CCOC(=O)C(C)c1nc2ccc(C(F)(F)F)cc2[nH]c1=O (configuration not stated) , give the reported growth inhibition.
Out: 16.7

In: Given the molecule "COc1cc(C(=O)N(C)N(C)C)cc(OC)c1OC" , what is its reported growth inhibition?
Out: -9.6

In: Bench note: what growth inhibition did "O=C(NCC(C(=O)OCc1ccccc1)C(=O)OCc1ccccc1)OCc1ccccc1" show?
Out: -13.8

In: // returns reported growth inhibition for input "CC/C(Cl)=N\OC(=O)Nc1ccc(F)cc1F"
Out: -12.1

In: For CC(C(O)c1ccccn1)[N+](=O)[O-] (configuration not stated) , what is its reported growth inhibition?
Out: 1.55

In: Given the entry CC(=O)NC1C(OCc2ccccc2)OC(CO)C(O)C1OCc1ccccc1 (configuration not stated) , report its measured growth inhibition.
Out: -18.2

Cited source for all entries: PubChem BioAssay (NCI)
